- Study Target: mTOR (Homo sapiens, UniProt P42345)
- Construct: purchased Invitrogen Corporation (Carlsbad/Calif., USA) PV4753
- Sequence (P42345 1360-2549 limits assumed): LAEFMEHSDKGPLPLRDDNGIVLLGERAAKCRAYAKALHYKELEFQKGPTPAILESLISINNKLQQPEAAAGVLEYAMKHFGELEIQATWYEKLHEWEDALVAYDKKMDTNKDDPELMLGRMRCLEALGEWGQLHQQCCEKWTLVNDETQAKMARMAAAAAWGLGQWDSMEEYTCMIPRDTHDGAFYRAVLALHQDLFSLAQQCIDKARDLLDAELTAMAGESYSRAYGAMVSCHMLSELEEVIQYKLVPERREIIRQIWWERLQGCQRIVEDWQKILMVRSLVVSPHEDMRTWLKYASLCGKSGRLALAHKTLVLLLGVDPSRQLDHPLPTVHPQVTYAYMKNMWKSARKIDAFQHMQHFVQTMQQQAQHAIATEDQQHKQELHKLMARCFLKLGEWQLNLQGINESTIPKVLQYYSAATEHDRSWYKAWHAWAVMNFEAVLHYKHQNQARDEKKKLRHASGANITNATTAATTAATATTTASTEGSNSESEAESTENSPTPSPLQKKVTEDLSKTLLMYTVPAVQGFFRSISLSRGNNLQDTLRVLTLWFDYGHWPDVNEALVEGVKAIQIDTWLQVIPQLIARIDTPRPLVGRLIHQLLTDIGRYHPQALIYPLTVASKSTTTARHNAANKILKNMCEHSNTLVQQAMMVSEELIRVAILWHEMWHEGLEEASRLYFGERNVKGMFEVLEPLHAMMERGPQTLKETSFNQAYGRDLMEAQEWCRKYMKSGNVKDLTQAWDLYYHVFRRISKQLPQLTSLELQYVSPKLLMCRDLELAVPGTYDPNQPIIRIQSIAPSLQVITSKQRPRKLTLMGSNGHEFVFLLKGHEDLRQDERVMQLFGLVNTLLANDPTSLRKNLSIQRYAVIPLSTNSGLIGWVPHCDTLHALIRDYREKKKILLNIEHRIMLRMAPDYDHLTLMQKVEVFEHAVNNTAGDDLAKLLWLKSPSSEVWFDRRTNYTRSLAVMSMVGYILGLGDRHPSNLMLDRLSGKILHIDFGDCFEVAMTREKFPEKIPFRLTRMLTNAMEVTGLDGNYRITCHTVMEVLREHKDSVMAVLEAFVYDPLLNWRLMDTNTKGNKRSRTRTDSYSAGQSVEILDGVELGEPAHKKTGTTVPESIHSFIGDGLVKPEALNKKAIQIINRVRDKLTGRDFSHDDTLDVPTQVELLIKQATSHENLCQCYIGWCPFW
- Procedure Details: Biochemical assay for m-TOR by TR-FRET
- Experimental Conditions: read-out: mTOR/IC50
Measurement Kind: IC50 (nM)

Guide cases for IC50, answers given:
- Input Smiles: "COc1ncccc1-n1c(=O)n(C)c2cnc3ccc(-c4cnc5c(ccn5C)c4)cc3c21"
  IC50 (nM): 16
- Input Smiles: "CNc1ccc(-c2ccc3ncc4c(c3c2)n(-c2cccnc2C)c(=O)n4C)cn1"
  IC50 (nM): 19

a: CNc1ccc(-c2ccc3ncc4c(c3c2)n(-c2cccnc2OC)c(=O)n4C)cn1
b: CCOc1ccc(-c2ccc3ncc4c(c3c2)n(-c2cccnc2F)c(=O)n4C)cn1
Please state the entry with greater IC50 among a and b . Your answer should be the label attached to the chosen record.
b
(b: 107 nM, a: 25 nM)
